Tested target: T1, IL10Rα/IL2Rγ receptor (human, UniProt Q13651 22-578; P31785 23-369)
T1 sequence (looked up) 1: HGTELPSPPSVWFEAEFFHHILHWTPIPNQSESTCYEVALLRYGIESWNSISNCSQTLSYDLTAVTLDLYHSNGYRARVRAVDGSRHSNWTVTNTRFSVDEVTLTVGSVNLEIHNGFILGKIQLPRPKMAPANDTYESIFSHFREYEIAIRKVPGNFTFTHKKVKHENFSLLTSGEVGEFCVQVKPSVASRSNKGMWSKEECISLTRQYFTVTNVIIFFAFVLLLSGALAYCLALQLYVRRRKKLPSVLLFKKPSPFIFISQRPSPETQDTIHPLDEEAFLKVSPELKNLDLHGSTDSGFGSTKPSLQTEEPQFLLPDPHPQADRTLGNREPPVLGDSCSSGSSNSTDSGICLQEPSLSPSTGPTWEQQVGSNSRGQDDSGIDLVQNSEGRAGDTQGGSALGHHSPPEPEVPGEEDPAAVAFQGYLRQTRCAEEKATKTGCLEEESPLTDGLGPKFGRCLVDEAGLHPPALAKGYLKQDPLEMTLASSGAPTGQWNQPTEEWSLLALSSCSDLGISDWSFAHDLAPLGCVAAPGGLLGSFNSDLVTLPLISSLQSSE
T1 sequence (looked up) 2: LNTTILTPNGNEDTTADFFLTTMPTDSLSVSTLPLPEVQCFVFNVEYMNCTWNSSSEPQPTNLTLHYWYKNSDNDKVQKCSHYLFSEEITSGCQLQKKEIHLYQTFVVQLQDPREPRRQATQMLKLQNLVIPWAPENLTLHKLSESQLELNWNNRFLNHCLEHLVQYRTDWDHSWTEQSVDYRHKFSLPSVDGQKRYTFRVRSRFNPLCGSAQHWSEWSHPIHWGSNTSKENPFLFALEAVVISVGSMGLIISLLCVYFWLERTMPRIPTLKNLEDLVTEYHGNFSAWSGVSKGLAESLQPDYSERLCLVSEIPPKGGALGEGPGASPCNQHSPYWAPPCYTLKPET
Assay notes: cell-based or functional assay
Measured parameter: pSTAT3 MFI, B cells, 0.0001 nM (unstimulated 1193.5) (MFI)
Quick reminder: number only, in MFI, skip the unit.

Study these solved cases before continuing.
DR471(DR241-DR231) (bispecific antibody) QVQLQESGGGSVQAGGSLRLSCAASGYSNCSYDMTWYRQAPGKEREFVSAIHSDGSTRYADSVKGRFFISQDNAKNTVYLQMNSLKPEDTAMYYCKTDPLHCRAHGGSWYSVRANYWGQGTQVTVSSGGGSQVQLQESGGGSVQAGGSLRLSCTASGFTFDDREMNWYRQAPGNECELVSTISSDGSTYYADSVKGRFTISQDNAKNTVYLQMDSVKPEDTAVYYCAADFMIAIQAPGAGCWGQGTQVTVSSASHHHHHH : 1110
DR441(DR236-DR231) (bispecific antibody) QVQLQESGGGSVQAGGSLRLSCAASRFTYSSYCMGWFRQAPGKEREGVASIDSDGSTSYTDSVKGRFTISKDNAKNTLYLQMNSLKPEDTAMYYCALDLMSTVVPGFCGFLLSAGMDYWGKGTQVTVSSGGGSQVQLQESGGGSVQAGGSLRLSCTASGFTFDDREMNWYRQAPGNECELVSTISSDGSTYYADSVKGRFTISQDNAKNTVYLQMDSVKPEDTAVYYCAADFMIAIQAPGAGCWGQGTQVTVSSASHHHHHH : 1120
DR465(DR240-DR231) (bispecific antibody) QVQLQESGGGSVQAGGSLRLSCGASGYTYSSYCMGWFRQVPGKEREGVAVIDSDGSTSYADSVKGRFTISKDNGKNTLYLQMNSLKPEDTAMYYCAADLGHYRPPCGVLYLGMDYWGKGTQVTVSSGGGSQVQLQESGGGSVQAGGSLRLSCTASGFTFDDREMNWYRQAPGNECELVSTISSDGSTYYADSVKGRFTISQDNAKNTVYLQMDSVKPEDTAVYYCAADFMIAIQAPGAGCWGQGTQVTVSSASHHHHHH : 1110

# evaluate next
Consider the binder DR395(DR229-DR239) (bispecific antibody) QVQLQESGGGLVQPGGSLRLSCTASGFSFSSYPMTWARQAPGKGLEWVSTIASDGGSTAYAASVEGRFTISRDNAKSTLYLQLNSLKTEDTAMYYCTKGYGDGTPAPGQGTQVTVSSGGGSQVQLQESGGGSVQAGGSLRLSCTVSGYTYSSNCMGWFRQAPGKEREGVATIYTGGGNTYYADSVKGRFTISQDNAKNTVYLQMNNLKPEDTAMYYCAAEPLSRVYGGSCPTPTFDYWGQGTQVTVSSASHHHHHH and give its measured pSTAT3 MFI, B cells, 0.0001 nM (unstimulated 1193.5).
1130
